I'd appreciate it if you could supply GI50 values for the items below.
tested on: TK-10; test: NCI tumour cell line growth inhibition, 48 h
Calls of active or inactive are those of the source. Cut-off read from the data, not from the text of the source: active = GI50 up to about 1.1 µM and inactive = higher.

Please review the entries below; each comes with its answer.
COc1ccc(C(=O)/C=C/c2ccc3c(c2)OCO3)c(OCc2ccccc2)c1; > 90.8 µM (inactive)
CCCNCCCC(NC(C)=O)C(=O)NCc1ccccc1 (stereo not given); > 100 µM (inactive)
CC1C2CC(C(S(=O)(=O)O)C2=O)C1(C)C (stereo not given); > 100 µM (inactive)

Provide GI50 values for the following items, in order.
1. COc1ccc(-c2c(C#N)c(NC(=S)NC(=O)c3ccccc3)nc3c2CCCC3)cc1OC
2. CC1=C(C(=O)Nc2ccc(Cl)c(C(=O)OC(C)C)c2)SCCO1
3. COC1(OC)CCc2c(sc3ncnc(Nc4cccc(Br)c4)c23)C1
4. Cc1cc2c(c3c1c1ccccc1n3C)C(=O)c1ccccc1C2=O
5. CCOC(=O)C1=CC(C)(C(=O)OCC)Nc2c(nc(OC)n(C)c2=O)N1 (stereo not given)
6. CCCCOC(=O)CNC(=O)OCCCCC#CC#CCCCCOC(=O)NCC(=O)OCCCC

// result
45.4 µM (inactive)
> 100 µM (inactive)
10.6 µM (inactive)
> 100 µM (inactive)
> 10 µM (inactive)
> 100 µM (inactive)

Form field GI50 for item CCC1C(=O)C(O)[C@H]2[C@@H]3C(O)CC4=CC(=O)CC[C@]4(C)[C@H]3CC[C@]12C (stereo not given in full) on TK-10: > 50 µM (inactive)

Provenance of the data: ChEMBL document CHEMBL1201862
